Examples of binders with documented pKd follow.
Molecular target: BCL-XL (Homo sapiens)
Sequence (chain, as listed by the source): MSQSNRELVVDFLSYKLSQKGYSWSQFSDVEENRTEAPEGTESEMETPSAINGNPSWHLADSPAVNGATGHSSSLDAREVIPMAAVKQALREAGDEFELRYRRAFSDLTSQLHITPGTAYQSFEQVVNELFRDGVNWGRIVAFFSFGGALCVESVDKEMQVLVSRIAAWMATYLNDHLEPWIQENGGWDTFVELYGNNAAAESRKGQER
Experiment: BLI
The read-out pKd is expressed as -log10 of concentration in moles per litre.

Binder	pKd
αBAX1 (designed binder, biotinylated for BLI (Avi tag). Limits not given; the soluble form lacking the transmembrane segment (210-226) is taken by convention. Any loop deletion is not stated) GADPKKVLDKARDQAENRVRELAQKLEELYKEARKLDLTQEERRKLEKRYKAAMEEAIKDIHEAIEQAKEEADKLKDAGLVNEQQLKELKQRLNELAIAAAFRASGDTIEFRRKLQYG	6.29

// recorded pKd for BAK-CDP02 (BAK-targeting computationally designed protein 02 of 11) (designed binder, biotinylated for BLI (Avi tag). Limits not given; the soluble form lacking the transmembrane segment (210-226) is taken by convention. Any loop deletion is not stated) GADPKKVLDKAKDQAENVVRKLKQILEELYKEARKLDLTQDEKIELILRYIAAMLAAIGDILEAIRQAKEEADKLKKAGLVNSQQLDELKRRLEELRKEAARKARDYAEEFRNKLEYG : 4.52
